Molecular target: GST-tagged human recombinant active B-Raf (Δ1-415) (Homo sapiens)
Construct: GST; purchased Upstate/Millipore
Test: B-Raf kinase activity, IMAP coupled assay (B-Raf/MEK1/ERK2, fluorescence polarization)
Assay type: biochemical
Conditions: bounds also given as pIC50 (>6, >7, >8); 60 min pre-incubation with compound, ATP 50 μM; read-out: IC50, B-Raf IMAP assay
pIC50: −log10 of the molar value.
Measured pIC50 values are reported for all entries that follow.

| ENTRY_SMILES | pIC50 |
| --- | --- |
| Cc1ccc(NC(=O)c2cccc(C(C)(C)C#N)c2)cc1NC(=O)c1cc2ncc(-c3cccnc3)nc2s1 | > 7.00 |
| CCNc1cnc2sc(C(=O)Nc3cc(NC(=O)c4cccc(C(C)(C)C#N)c4)ccc3C)cc2n1 | > 7.00 |
| Cc1ccc(NC(=O)c2cccc(C(C)(C)C#N)c2)cc1NC(=O)c1sc2ncc(NC3CCOCC3)nc2c1N | > 7.00 |
| Cc1ccc(NC(=O)c2ccc(C)c(C(F)(F)F)c2)cc1NC(=O)c1cc2nccnc2s1 | > 7.00 |
| Cc1ccc(NC(=O)c2cccc(C(C)(C)C#N)c2)cc1NC(=O)c1sc2nccnc2c1C | > 8.00 |
| Cc1ccc(NC(=O)c2cccc(C(C)(C)C#N)c2)cc1NC(=O)c1cc2nc(Cl)cnc2s1 | > 7.00 |
| Cc1ccc(NC(=O)c2cccc(C(C)(C)C#N)c2)cc1NC(=O)c1cc2nc(-c3cnc(N(C)C)nc3)cnc2s1 | > 7.00 |
| Cc1ccc(NC(=O)c2cc(OC(F)(F)F)ccc2F)cc1NC(=O)c1cc2nccnc2s1 | > 7.00 |
| Cc1ccc(NC(=O)c2cccc(C(C)(C)C#N)c2)cc1NC(=O)c1cc2ncc(NCCN(C)C)nc2s1 | > 8.00 |
| Cc1ccc(NC(=O)c2cccc(C(C)(C)C#N)c2)cc1NC(=O)c1cc2ncc(NCCO)nc2s1 | > 8.00 |
| Cc1ccc(NC(=O)c2cccc(C(C)(C)C#N)c2)cc1NC(=O)c1sc2ncc(NCCN(C)C)nc2c1N | > 8.00 |
| CNc1cnc2sc(C(=O)Nc3cc(NC(=O)c4cccc(C(C)(C)C#N)c4)ccc3C)c(N)c2n1 | > 8.00 |
| Cc1ccc(NC(=O)c2cccc(C(C)(C)C#N)c2)cc1NC(=O)c1cc2nc(-c3ccncc3)cnc2s1 | > 7.00 |
| Cc1ccc(C(=O)Nc2cccc(C(F)(F)F)c2)cc1NC(=O)c1cc2nccnc2s1 | > 7.00 |
| Cc1ccc(NC(=O)c2cccc(C(C)(C)C#N)c2)cc1NC(=O)c1cc2nc(-c3cncnc3)cnc2s1 | > 8.00 |

====

// reported pIC50 for each item listed
Biological target: GST-tagged human recombinant active B-Raf (Δ1-415) (Homo sapiens, UniProt P15056)
Construct: GST; purchased Upstate/Millipore
Sequence (P15056 416-766, stated change not applied): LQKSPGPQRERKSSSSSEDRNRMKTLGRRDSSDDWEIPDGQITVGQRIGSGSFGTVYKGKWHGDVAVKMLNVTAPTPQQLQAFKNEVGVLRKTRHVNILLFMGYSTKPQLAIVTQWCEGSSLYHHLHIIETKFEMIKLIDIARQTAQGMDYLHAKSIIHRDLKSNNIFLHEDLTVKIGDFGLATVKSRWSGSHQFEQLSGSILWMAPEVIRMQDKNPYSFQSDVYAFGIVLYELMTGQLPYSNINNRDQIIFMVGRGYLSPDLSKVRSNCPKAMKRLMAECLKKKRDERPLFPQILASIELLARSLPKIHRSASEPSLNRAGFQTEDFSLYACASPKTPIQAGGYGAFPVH
Assay: B-Raf kinase activity, IMAP coupled assay (B-Raf/MEK1/ERK2, fluorescence polarization)
Assay type: biochemical
Settings: bounds also given as pIC50 (>6, >7, >8); 60 min pre-incubation with compound, ATP 50 μM; read-out: IC50, B-Raf IMAP assay
pIC50: −log10 of the molar value.
PROPERTY_NAME: pIC50

| ENTRY_SMILES | TESTED_SYSTEM | OBSERVED_MEASUREMENT |
| --- | --- | --- |
| CCOc1cnc2cc(C(=O)Nc3cc(NC(=O)c4cccc(C(C)(C)C#N)c4)ccc3C)sc2n1 | GST-tagged human recombinant active B-Raf (Δ1-415) (Homo sapiens, UniProt P15056) | > 7.00 |
| Cc1ccc(NC(=O)c2cccc(C(C)(C)C#N)c2)cc1NC(=O)c1sc2nccnc2c1N | GST-tagged human recombinant active B-Raf (Δ1-415) (Homo sapiens, UniProt P15056) | > 8.00 |
| Cc1ccc(NC(=O)c2cccc(C(C)(C)C#N)c2)cc1C(=O)Nc1cc2nccnc2s1 | GST-tagged human recombinant active B-Raf (Δ1-415) (Homo sapiens, UniProt P15056) | > 7.00 |
| Cc1ccc(NC(=O)c2cccc(C(F)(F)F)c2)cc1NC(=O)c1cc2nc(-c3cccnc3)cnc2s1 | GST-tagged human recombinant active B-Raf (Δ1-415) (Homo sapiens, UniProt P15056) | > 7.00 |

====

pIC50 values by entry
Target: GST-tagged human recombinant active B-Raf (Δ1-415) (Homo sapiens, UniProt P15056)
Construct: GST; purchased Upstate/Millipore
Experiment: B-Raf kinase activity, IMAP coupled assay (B-Raf/MEK1/ERK2, fluorescence polarization)
Format: biochemical
Details: bounds also given as pIC50 (>6, >7, >8); 60 min pre-incubation with compound, ATP 50 μM; read-out: IC50, B-Raf IMAP assay
pIC50: −log10 of the molar value.

| ENTRY_SMILES | pIC50 |
| --- | --- |
| Cc1ccc(NC(=O)c2cccc(C(C)(C)C#N)c2)cc1NC(=O)c1sc2ncc(-c3ccco3)nc2c1N | > 7.00 |
| CC(C)(C#N)c1cccc(C(=O)Nc2ccc(C#N)c(NC(=O)c3cc4nccnc4s3)c2)c1 | > 7.00 |
| Cc1ccc(NC(=O)c2cccc(C(C)(C)C#N)c2)cc1NC(=O)c1cc2nc(NCc3ccncc3)cnc2s1 | > 8.00 |
| Cc1ccc(NC(=O)c2cccc(C3(C#N)CCOCC3)c2)cc1NC(=O)c1cc2nccnc2s1 | > 7.00 |
| CCNc1c(C(=O)Nc2cc(NC(=O)c3cccc(C(C)(C)C#N)c3)ccc2C)sc2nccnc12 | > 7.00 |
| CCOc1cnc2sc(C(=O)Nc3cc(NC(=O)c4cccc(C(C)(C)C#N)c4)ccc3C)cc2n1 | > 7.00 |
| Cc1ccc(NC(=O)c2cccc(OC(F)(F)F)c2)cc1NC(=O)c1cc2nccnc2s1 | > 7.00 |
| Cc1ccc(NC(=O)c2cccc(C(C)(C)C#N)c2)cc1NC(=O)c1cc2ncc(N(C)C)nc2s1 | > 8.00 |
| CCNc1cnc2sc(C(=O)Nc3cc(NC(=O)c4cccc(C(C)(C)C#N)c4)ccc3C)c(N)c2n1 | > 7.00 |
| Cc1ccc(NC(=O)c2cccc(C(F)(F)F)c2)cc1NC(=O)c1sc2nccnc2c1N | > 8.00 |
| Cc1ccc(NC(=O)c2cccc(-c3ccsc3)c2)cc1NC(=O)c1cc2nccnc2s1 | > 7.00 |
| Cc1ccc(NC(=O)c2cccc(C(F)(F)F)c2F)cc1NC(=O)c1cc2nccnc2s1 | > 7.00 |
| C=Cc1c(C(=O)Nc2cc(NC(=O)c3cccc(C(C)(C)C#N)c3)ccc2C)sc2nccnc12 | > 8.00 |
| Cc1ccc(NC(=O)c2cccc(C(C)(C)C#N)c2)cc1NC(=O)c1sc2ncc(Br)nc2c1N | > 7.00 |
| Cc1ccc(NC(=O)c2cccc(C(C)(C)C#N)c2)cc1NC(=O)c1cc2[nH]c(=O)cnc2s1 | > 7.00 |
| CC(=O)c1cnc2sc(C(=O)Nc3cc(NC(=O)c4cccc(C(C)(C)C#N)c4)ccc3C)cc2n1 | > 7.00 |
| Cc1ccc(NC(=O)c2cccc(C(C)(C)C#N)c2)cc1NC(=O)c1cc2nc(N(C)C)cnc2s1 | > 8.00 |
| COCCNc1cnc2cc(C(=O)Nc3cc(NC(=O)c4cccc(C(C)(C)C#N)c4)ccc3C)sc2n1 | > 8.00 |
| Cc1ccc(NC(=O)c2cccc(C3(C#N)CC3)c2)cc1NC(=O)c1cc2nccnc2s1 | > 8.00 |
| COc1ccc(C(=O)Nc2ccc(C)c(NC(=O)c3cc4nccnc4s3)c2)cc1C(F)(F)F | > 7.00 |
| Cc1ccc(NC(=O)c2ccc(CN3CCN(C)CC3)c(C(F)(F)F)c2)cc1NC(=O)c1cc2nccnc2s1 | > 7.00 |
| Cc1ccc(NC(=O)c2cccc(C(C)(C)C#N)c2)cc1NCc1cc2nccnc2s1 | > 7.00 |
| Cc1ccc(NC(=O)c2ccnc(N3CCCC3)c2)cc1NC(=O)c1cc2nccnc2s1 | > 7.00 |
| Cc1ccc(NC(=O)c2cccc(C(C)(C)C#N)c2)cc1NC(=O)c1sc2ncc(N(C)C)nc2c1N | > 8.00 |
| COCCNc1cnc2sc(C(=O)Nc3cc(NC(=O)c4cccc(C(C)(C)C#N)c4)ccc3C)c(N)c2n1 | > 8.00 |
| CCNc1cnc2cc(C(=O)Nc3cc(NC(=O)c4cccc(C(C)(C)C#N)c4)ccc3C)sc2n1 | > 7.00 |
| Cc1ccc(NC(=O)c2cccc(C(C)(C)C#N)c2)cc1NC(=O)c1sc2nccnc2c1C#N | > 8.00 |
| Cc1ccc(NC(=O)c2cccc(C(C)(C)C#N)c2)cc1NC(=O)c1cc2nc(NCCN(C)C)cnc2s1 | > 7.00 |
| Cc1ccc(NC(=O)c2cccc(-n3cccn3)c2)cc1NC(=O)c1cc2nccnc2s1 | > 7.00 |
| Cc1ccc(NC(=O)c2ccnc(N(C)C)c2)cc1NC(=O)c1cc2nccnc2s1 | > 7.00 |
| CNc1cnc2sc(C(=O)Nc3cc(NC(=O)c4cccc(C(C)(C)C#N)c4)ccc3C)cc2n1 | > 7.00 |

Source: patent US8669256B2
